Where do these numbers come from? They come from patent US8383581B2.

- assay-comment: Stability of peptides in human plasma
- Assay type: in vitro ADME
- applied-conditions: human, plasma, pH 7.8
Where a SMILES comes first, the peptide text is derived from it. [ ]: non-standard residue; d: D form. ξ: configuration not given here. Arg(NO2) = N=C(NCCC[C@H](N)C(=O)O)N[N+](=O)[O-]; αMePhe(2,6-F2) = C[C@](N)(Cc1c(F)cccc1F)C(=O)O; ξαMePhe(2,6-F2) = CC(N)(Cc1c(F)cccc1F)C(=O)O; αMePhe(2-F) = C[C@](N)(Cc1ccccc1F)C(=O)O; ξαMePhe(2-F) = CC(N)(Cc1ccccc1F)C(=O)O; hArg = N=C(N)NCCCC[C@H](N)C(=O)O; hCit = NC(=O)NCCCC[C@H](N)C(=O)O; Cit = NC(=O)NCCC[C@H](N)C(=O)O; ξαMeF = CC(N)(Cc1ccccc1)C(=O)O; Nle = CCCC[C@H](N)C(=O)O; ξαMeP = CC1(C(=O)O)CCCN1; Ac5c = NC1(C(=O)O)CCCC1; Aib = CC(C)(N)C(=O)O
Kindly supply the reported metabolised at 24 h, 2 μM values for the records listed here.
Answers are plain numbers, in %.

Please review the entries below; each comes with its answer.
CCCC[C@H](NC(=O)[C@H](CC(C)C)NC(=O)[C@H](CCC(N)=O)NC(=O)[C@@H](NC(=O)[C@H](CCC(=O)O)NC(=O)C(C)(C)NC(=O)[C@@H](NC(=O)C(C)(C)N)C(C)C)[C@@H](C)CC)C(=O)N[C@@H](Cc1c[nH]cn1)C(=O)N[C@@H](CCC(N)=O)C(=O)N[C@@H](CCCCNC(=N)N)C(=O)NC(C)(C)C(=O)N[C@@H](CCCCN)C(=O)NC(C)(Cc1ccccc1)C(N)=O (some centres unmarked) [Seq. ID. 10] (H-[Aib]V[Aib]EIQL[Nle]HQ[hArg][Aib]K[ξαMeF]-NH2) : 70
CCCC[C@H](NC(=O)C(C)(Cc1ccccc1F)NC(=O)[C@H](CCC(N)=O)NC(=O)[C@@H](NC(=O)[C@H](CCC(=O)O)NC(=O)C(C)(C)NC(=O)[C@@H](NC(=O)C1(N)CCCC1)C(C)C)[C@@H](C)CC)C(=O)N[C@@H](Cc1c[nH]cn1)C(=O)N[C@@H](CCC(N)=O)C(=O)N[C@@H](CCCCNC(=N)N)C(=O)NC(C)(C)C(=O)N[C@@H](CCCNC(=N)N[N+](=O)[O-])C(=O)NC(C)(Cc1ccccc1F)C(N)=O (some centres unmarked) [Seq. ID. 250] (H-[Ac5c]V[Aib]EIQ[ξαMePhe(2-F)][Nle]HQ[hArg][Aib][Arg(NO2)][ξαMePhe(2-F)]-NH2) : 78
CCCC[C@H](NC(=O)C(C)(Cc1c(F)cccc1F)NC(=O)[C@H](CCC(N)=O)NC(=O)[C@@H](NC(=O)[C@H](CCC(=O)O)NC(=O)C1(NC(=O)[C@@H](NC(=O)C2(N)CCCC2)C(C)C)CCCC1)[C@@H](C)CC)C(=O)N[C@@H](Cc1c[nH]cn1)C(=O)N[C@@H](CCC(N)=O)C(=O)N[C@@H](CCCCNC(=N)N)C(=O)N1CCCC1(C)C(=O)N[C@@H](CCCCN)C(=O)NC(C)(Cc1ccccc1)C(N)=O (some centres unmarked) [Seq. ID. 46] (H-[Ac5c]V[Ac5c]EIQ[ξαMePhe(2,6-F2)][Nle]HQ[hArg][ξαMeP]K[ξαMeF]-NH2) : 0
CCCCC(C)(NC(=O)[C@H](CC(C)C)NC(=O)[C@H](CCC(N)=O)NC(=O)[C@@H](NC(=O)[C@H](CCC(=O)O)NC(=O)C(C)(C)NC(=O)[C@@H](NC(=O)C1(NC(=O)[C@@H](N)C(C)C)CCCC1)C(C)C)[C@@H](C)CC)C(=O)N[C@@H](Cc1c[nH]cn1)C(=O)N[C@@H](CCC(N)=O)C(=O)N[C@@H](CCCCNC(=N)N)C(=O)N[C@@H](C)C(=O)N[C@@H](CCCCNC(=N)N)C(=O)NC(Cc1ccc(-c2ccc(OC)cc2CC)cc1)C(=O)NC(C)(CCCc1ccccc1)C(N)=O (single isomer, unassigned) : 78
CCCC[C@H](NC(=O)[C@](C)(Cc1ccccc1F)NC(=O)[C@H](CCC(N)=O)NC(=O)[C@@H](NC(=O)[C@H](CCC(=O)O)NC(=O)C(C)(C)NC(=O)[C@@H](NC(=O)C(C)(C)N)C(C)C)[C@@H](C)CC)C(=O)N[C@@H](Cc1c[nH]cn1)C(=O)N[C@@H](CCC(N)=O)C(=O)N[C@@H](CCCCNC(=N)N)C(=O)NC(C)(C)C(=O)N[C@@H](CCCNC(N)=O)C(=O)N[C@@](C)(Cc1c(F)cccc1F)C(N)=O [Seq. ID. 142] (H-[Aib]V[Aib]EIQ[αMePhe(2-F)][Nle]HQ[hArg][Aib][Cit][αMePhe(2,6-F2)]-NH2) : 80
CCCC[C@H](NC(=O)C(C)(Cc1c(F)cccc1F)NC(=O)[C@H](CCC(N)=O)NC(=O)[C@@H](NC(=O)[C@H](CCC(=O)O)NC(=O)C(C)(C)NC(=O)[C@@H](NC(=O)C1(N)CCCC1)C(C)C)[C@@H](C)CC)C(=O)N[C@@H](Cc1c[nH]cn1)C(=O)N[C@@H](CCC(N)=O)C(=O)N[C@@H](CCCCNC(N)=O)C(=O)NC(C)(C)C(=O)NC(C)(C)C(=O)NC(C)(Cc1c(F)cccc1F)C(N)=O (some centres unmarked) [Seq. ID. 440] (H-[Ac5c]V[Aib]EIQ[ξαMePhe(2,6-F2)][Nle]HQ[hCit][Aib][Aib][ξαMePhe(2,6-F2)]-NH2) : 0
CCCC[C@H](NC(=O)C(C)(Cc1ccccc1F)NC(=O)[C@H](CCC(N)=O)NC(=O)[C@@H](NC(=O)[C@H](CCC(=O)O)NC(=O)C(C)(C)NC(=O)[C@@H](NC(=O)C(C)(C)N)C(C)C)[C@@H](C)CC)C(=O)N[C@@H](Cc1c[nH]cn1)C(=O)N[C@@H](CCC(N)=O)C(=O)N[C@@H](CCCNC(N)=O)C(=O)N[C@@H](C)C(=O)N[C@@H](CCCNC(N)=O)C(=O)NC(C)(Cc1ccccc1F)C(N)=O (some centres unmarked) [Seq. ID. 345] (H-[Aib]V[Aib]EIQ[ξαMePhe(2-F)][Nle]HQ[Cit]A[Cit][ξαMePhe(2-F)]-NH2) : 70

Field: next molecule
INPUT: Query: metabolised at 24 h, 2 μM; subject: CC[C@H](C)[C@H](NC(=O)[C@H](CCC(=O)O)NC(=O)C(C)(C)NC(=O)[C@@H](NC(=O)C1(NC(=O)[C@@H](N)C(C)C)CC1)C(C)C)C(=O)N[C@@H](CCC(N)=O)C(=O)N[C@@H](CC(C)C)C(=O)NC(C)(CCSC)C(=O)N[C@@H](Cc1c[nH]cn1)C(=O)N[C@@H](CCC(N)=O)C(=O)N[C@@H](CCCCNC(=N)N)C(=O)N[C@@H](C)C(=O)N[C@@H](CCCCNC(=N)N)C(=O)NC(C)(Cc1c[nH]c2ccccc12)C(=O)NC(C)(CCCc1ccccc1)C(N)=O (single isomer, unassigned)
OUTPUT: 0
